The reader will find reported growth inhibition values listed item by item below.
# ASSAY_OVERVIEW: NCI Yeast Anticancer Drug Screen. Data for the sgs1 mgt1 strain (AID 161);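 also: 0% = growth of cultures given vehicle only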
# ASSAY_SETUP: S. cerevisiae sgs1 mgt1 strain, at 50.0 µM, stronger effect = higher value
About 79,000 compounds went through this panel and 15% of them were active in at least one assay; those are over-represented in the sample as a whole.
Answer format: numeric, % implied, no suffix.

Solved entries:
• O=C(CBr)c1ccc2cc(Br)c3ccccc3c2c1 = 68.5
• c1ccc2c(c1)C[n+]1ccc3ccccc3c1-c1c3ccccc3cc[n+]1C2 = 69.8
• O=C(/C=C/c1ccccc1)C1(c2ccccc2)CC1 = 68.9
• COc1cc(/C=C(\C#N)c2ccc([N+](=O)[O-])cc2)ccc1O = 74
• O=C1NC2(C=Cc3c(ccc4ccccc34)O2)Oc2ccccc21 (stereo not given) = 34
• CC(C)N(CN1C(=O)N/C(=C/c2cccc(/C=C3/NC(=O)N(CN(C(C)C)C(C)C)C3=O)c2)C1=O)C(C)C = -2.5
• CCCCNC(C)(C)COC(=O)/C=C/c1ccc(OCCCC)cc1 = 75.8
• O=C(CSC1=NNC2(C(=O)N1)c1ccccc1-c1ccccc12)NC(=S)Nc1ccccc1 = 98

// growth inhibition lookup, key: COc1ccc([C@H]2c3cc4c(cc3OC(O)(CO)[C@H]2C(=O)O)OCO4)c(OC)c1 (stereo not given in full) (tested in a mixture with another compound)
44.1

// growth inhibition lookup, key: O=c1oc2cc(N=Cc3ccc4c(c3)OCO4)ccc2c2ccccc12
0.25

// growth inhibition lookup, key: CCN(CC)CCOC(=O)C1C(c2ccccc2)C1(c1ccccc1)c1ccccc1 (stereo not given)
88.7

// growth inhibition lookup, key: CC(C)=Cc1cc2c(cc1O)CCC1C2CC[C@@]2(C)C1CC[C@@H]2O (stereo not given in full)
71
